Target: IMP-1 (Serratia marcescens, UniProt P52699)
Sequence (P52699 whole entry, looked up): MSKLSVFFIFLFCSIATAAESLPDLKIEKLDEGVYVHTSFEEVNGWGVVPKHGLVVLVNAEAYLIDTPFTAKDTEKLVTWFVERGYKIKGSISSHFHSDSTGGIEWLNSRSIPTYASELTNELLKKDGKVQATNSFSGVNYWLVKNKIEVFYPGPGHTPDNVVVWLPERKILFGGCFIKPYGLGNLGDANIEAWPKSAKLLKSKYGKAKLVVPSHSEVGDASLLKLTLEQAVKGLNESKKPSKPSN
Assay: biochemical
Assay type: biochemical
Conditions: fluorescence assay with CCF2-FA substrate; read-out: IMP-1 IC50
test readout: pIC50
Please note pIC50 is a logarithmic value: minus log10 of concentration in mol/L. Answer with that number alone.

Here's what some known entries look like.
{"compound": "COc1ccc(-c2cccc(S(N)(=O)=O)c2-c2nn[nH]n2)cn1", "tested on": "IMP-1 (Serratia marcescens, UniProt P52699)", "result number": 6.69}
{"compound": "NC1CCC(N2CCC(c3ccc(-c4ccc(C(F)(F)F)c(S(N)(=O)=O)c4-c4nnn[nH]4)cc3)CC2)CC1 (stereo not drawn)", "tested on": "IMP-1 (Serratia marcescens, UniProt P52699)", "result number": 8.75}

# ---- query compound ----
// pIC50 lookup, compound = `NS(=O)(=O)c1nccc(N2CCC(N3CC[C@H](O)C3)CC2)c1-c1nnn[nH]1` , result: 5.41
